molecular target: furin, P09958; test: furin cleavage Z-score vs untreated control; higher = more cleavage, active = 3.5 or more, inactive = 1 or less, 8 variable residues between constant flanks; conditions: 7.5 min;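 note: purified furin at 1:10 enzyme:substrate in 50 mM HEPES pH 7.5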
Sequence (P09958 whole entry): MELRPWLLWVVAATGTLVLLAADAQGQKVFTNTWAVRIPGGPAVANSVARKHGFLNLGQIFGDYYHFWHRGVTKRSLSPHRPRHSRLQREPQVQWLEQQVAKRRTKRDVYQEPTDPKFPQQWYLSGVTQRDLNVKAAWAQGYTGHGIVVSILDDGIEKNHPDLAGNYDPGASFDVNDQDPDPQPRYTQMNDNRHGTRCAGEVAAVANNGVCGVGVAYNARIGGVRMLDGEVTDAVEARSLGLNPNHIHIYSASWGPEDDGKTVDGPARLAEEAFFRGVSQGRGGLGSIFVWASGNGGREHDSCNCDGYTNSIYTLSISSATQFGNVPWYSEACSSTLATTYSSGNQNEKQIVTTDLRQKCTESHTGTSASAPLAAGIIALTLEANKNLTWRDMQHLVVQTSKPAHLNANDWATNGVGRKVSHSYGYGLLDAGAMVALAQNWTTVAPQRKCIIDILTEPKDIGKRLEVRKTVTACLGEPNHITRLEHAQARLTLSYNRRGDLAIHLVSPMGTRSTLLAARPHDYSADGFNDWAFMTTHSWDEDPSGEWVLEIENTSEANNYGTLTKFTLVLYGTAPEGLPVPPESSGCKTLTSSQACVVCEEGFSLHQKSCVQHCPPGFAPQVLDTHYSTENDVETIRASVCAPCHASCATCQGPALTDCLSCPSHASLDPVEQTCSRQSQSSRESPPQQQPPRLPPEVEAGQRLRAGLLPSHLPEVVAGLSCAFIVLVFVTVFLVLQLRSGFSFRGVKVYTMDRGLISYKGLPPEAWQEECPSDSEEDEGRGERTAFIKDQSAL
The list shows a part of the results. The hit rate among all sequences tested is not known here.
Label y when furin cleavage Z-score is at or above 0.3; anything below gets n.

{"residue string": "CARNKKDVNLAGNASASA [FS-2726]", "assigned category": "y"}
{"residue string": "CALCSALYVGAGNASASA [HC296]", "assigned category": "n"}
{"residue string": "CAEVAASCGGAGNASASA [HC567]", "assigned category": "n"}

Can CAQYFLTRVEAGNASASA [HC584] be said to have furin cleavage Z-score at or above 0.3?
n

Determine whether measured furin cleavage Z-score meets or exceeds 0.3 for CARARRSASPAGNASASA [FS-2481]
y

Answer whether furin cleavage Z-score of CALPYIEQGMAGNASASA [HC1018] is greater than or equal to 0.3.
n

Evaluate CASLKKIKRSAGNASASA [FS-297] : furin cleavage Z-score at minimum 0.3?
y

Say whether CARELRQLMEAGNASASA [FS-2916] shows furin cleavage Z-score of 0.3 or more.
n

Hi, just wondering whether CAVAGALVAFAGNASASA [HC1090] shows furin cleavage Z-score of 0.3 or higher.
y

Confirm if furin cleavage Z-score reported for the sequence CAMRSPVFTDAGNASASA [HC763] is 0.3 or above.
y

Determine whether this sequence has furin cleavage Z-score no lower than 0.3: CARHYKSASPAGNASASA [FS-1718]
n

Reference source for all entries: the supplement of paper PMC3545927
